Assayed System: Alpha-2A adrenergic receptor (Homo sapiens, UniProt P08913); also: assay procedure not described here
Sequence (P08913 whole entry): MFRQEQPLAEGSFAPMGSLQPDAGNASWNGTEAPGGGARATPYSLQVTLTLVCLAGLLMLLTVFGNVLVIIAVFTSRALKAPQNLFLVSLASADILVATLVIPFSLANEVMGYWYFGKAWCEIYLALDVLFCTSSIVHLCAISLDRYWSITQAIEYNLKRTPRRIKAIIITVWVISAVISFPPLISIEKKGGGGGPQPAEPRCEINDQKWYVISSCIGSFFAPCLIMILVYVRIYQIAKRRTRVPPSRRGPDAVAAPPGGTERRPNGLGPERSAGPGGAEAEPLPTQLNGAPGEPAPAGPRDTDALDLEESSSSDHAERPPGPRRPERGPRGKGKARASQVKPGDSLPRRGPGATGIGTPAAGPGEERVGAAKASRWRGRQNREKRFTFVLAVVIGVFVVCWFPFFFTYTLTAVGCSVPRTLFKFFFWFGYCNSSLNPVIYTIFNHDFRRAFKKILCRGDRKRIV
Assay type: functional, cell-based
Provide the reported AC50 of each item.

## Input State the recorded AC50 for this entry: COc1cc2nccc(Oc3ccc(NC(=O)C4(C(=O)Nc5ccc(F)cc5)CC4)cc3)c2cc1OC [CABOZANTINIB]
## Output 19 µM

## Input Now consider CCOC(=O)c1cncn1[C@H](C)c1ccccc1 [ETOMIDATE] and answer again.
## Output > 10 µM

## Input Now consider CC(N)C12CC3CC(CC(C3)C1)C2 (stereo not given) and answer again.
## Output > 10 µM

## Input Now consider CC(C(=O)O)c1ccc(CC2CCCC2=O)cc1 (stereo not given) and answer again.
## Output > 30 µM

## Input Now consider COc1cc(N)c(Cl)cc1C(=O)NC1CCN(Cc2ccccc2)CC1 [CLEBOPRIDE] and answer again.
## Output 14 µM

## Input Now consider `O=[N+]([O-])c1ccc(O)c2ncccc12` and answer again.
## Output > 30 µM

## Input Now consider `[H]/N=C(/N)N/C(=N/[H])NCCc1ccccc1` and answer again.
## Output > 10 µM

## Input Now consider CC(C)N(CCC(C(N)=O)(c1ccccc1)c1ccccn1)C(C)C (stereo not given) [DISOPYRAMIDE] and answer again.
## Output > 10 µM

## Input Now consider COc1cc2c(cc1OC)C(CCc1ccc(Cl)cc1)N(C)CC2 (stereo not given) and answer again.
## Output > 10 µM

## Input Now consider CCN(CC)C(=O)Nc1ccc(OCC(O)CNC(C)(C)C)c(C(C)=O)c1 (stereo not given) and answer again.
## Output > 30 µM

###

Recorded below: AC50, system UniProt P03372.
Sequence (P03372 whole entry): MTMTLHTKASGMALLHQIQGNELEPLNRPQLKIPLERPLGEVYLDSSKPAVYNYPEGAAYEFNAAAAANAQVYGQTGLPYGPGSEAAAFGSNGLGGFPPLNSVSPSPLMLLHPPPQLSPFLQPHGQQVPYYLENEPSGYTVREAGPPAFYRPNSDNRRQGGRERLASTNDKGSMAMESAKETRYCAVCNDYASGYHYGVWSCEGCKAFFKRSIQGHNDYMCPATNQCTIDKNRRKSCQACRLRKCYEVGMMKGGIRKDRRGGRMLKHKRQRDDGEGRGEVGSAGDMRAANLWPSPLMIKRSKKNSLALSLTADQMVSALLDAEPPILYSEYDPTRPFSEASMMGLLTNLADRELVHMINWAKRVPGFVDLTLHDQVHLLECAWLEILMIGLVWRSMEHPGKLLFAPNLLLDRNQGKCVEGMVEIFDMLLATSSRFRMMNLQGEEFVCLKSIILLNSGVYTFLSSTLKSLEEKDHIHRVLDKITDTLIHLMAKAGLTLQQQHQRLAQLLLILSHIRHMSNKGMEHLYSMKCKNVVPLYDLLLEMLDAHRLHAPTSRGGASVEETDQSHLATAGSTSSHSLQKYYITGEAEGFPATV

## Input State the recorded AC50 for this entry: `Cc1cc2cc3c(C)cc(=O)oc3c(C)c2o1`
## Output > 30 µM

## Input Now consider `CCN(CC)CCN1C(=O)CN=C(c2ccccc2F)c2cc(Cl)ccc21` and answer again.
## Output > 30 µM

## Input Now consider `C=C1/C(=C\C=C2/CCC[C@]3(C)[C@@H]([C@H](C)/C=C/[C@@H](O)C4CC4)CC[C@@H]23)C[C@@H](O)C[C@@H]1O` and answer again.
## Output > 10 µM

## Input Now consider CC(C(=O)O)c1ccc(CC2CCCC2=O)cc1 (centres undefined) and answer again.
## Output > 30 µM

###

Assayed System: 5-hydroxytryptamine receptor 2B (Homo sapiens, UniProt P41595); also: assay procedure not described here
Sequence (P41595 whole entry): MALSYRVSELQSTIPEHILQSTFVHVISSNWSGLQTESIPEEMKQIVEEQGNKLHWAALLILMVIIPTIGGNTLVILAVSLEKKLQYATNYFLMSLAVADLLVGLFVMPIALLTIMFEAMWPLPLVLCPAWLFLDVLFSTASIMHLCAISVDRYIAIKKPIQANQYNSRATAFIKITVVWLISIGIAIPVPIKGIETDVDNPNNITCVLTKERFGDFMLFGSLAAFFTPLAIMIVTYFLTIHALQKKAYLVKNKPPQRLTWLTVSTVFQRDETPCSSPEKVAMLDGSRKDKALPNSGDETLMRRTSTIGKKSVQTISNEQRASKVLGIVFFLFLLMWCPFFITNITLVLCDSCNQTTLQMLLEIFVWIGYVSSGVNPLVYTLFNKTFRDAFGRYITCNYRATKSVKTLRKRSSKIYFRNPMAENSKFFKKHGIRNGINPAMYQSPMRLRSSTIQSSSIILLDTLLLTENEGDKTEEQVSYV
Format: functional, cell-based
Provide the reported AC50 of each item.

## Input Entry `CC(=O)SC[C@@H](C)C(=O)N1CCC[C@H]1C(=O)N[C@@H](Cc1ccccc1)C(=O)O` , system 5-hydroxytryptamine receptor 2B (Homo sapiens, UniProt P41595): what AC50 was measured?; also: assay procedure not described here
## Output > 30 µM

## Input Now consider CC(C)N(CCC(C(N)=O)(c1ccccc1)c1ccccn1)C(C)C (stereo not drawn) [DISOPYRAMIDE] and answer again.
## Output > 10 µM

## Input Now consider `CN1CCC(=C2c3ccccc3CCc3cccnc32)CC1` and answer again.
## Output 1.6 µM

## Input Now consider OC1(c2ccc(Cl)cc2)c2ccccc2C2=NCCN21 (stereo not drawn) and answer again.
## Output > 30 µM

## Input Now consider `OC[C@H]1O[C@@](CO)(O[C@H]2O[C@H](CO)[C@@H](O)[C@H](O)[C@H]2O)[C@@H](O)[C@@H]1O` and answer again.
## Output > 30 µM

## Input Now consider CCCCC(=O)O[C@]1(C(=O)CO)[C@@H](C)C[C@H]2[C@@H]3CCC4=CC(=O)C=C[C@]4(C)[C@@]3(F)[C@@H](O)C[C@@]21C [BETAMETHASONE VALERATE] and answer again.
## Output > 10 µM

## Input Now consider CCC(=O)O[C@H]1CC[C@H]2[C@@H]3CCC4=CC(=O)CC[C@]4(C)[C@H]3CC[C@]12C [TESTOSTERONE PROPIONATE] and answer again.
## Output > 10 µM

## Input Now consider `Cc1onc(-c2ccccc2)c1-c1ccc(S(N)(=O)=O)cc1` and answer again.
## Output > 10 µM

## Input Now consider `O=C1CN(/N=C/c2ccc(-c3ccc([N+](=O)[O-])cc3)o2)C(O)=N1` and answer again.
## Output > 10 µM

## Input Now consider `O=[N+]([O-])c1ccc(O)c2ncccc12` and answer again.
## Output > 30 µM

## Input Now consider `C[C@@H](Oc1cc(-c2cnn(C3CCNCC3)c2)cnc1N)c1c(Cl)ccc(F)c1Cl` and answer again.
## Output 2.7 µM

## Input Now consider CCCN[C@H]1CCc2nc(N)sc2C1 [PRAMIPEXOLE] and answer again.
## Output > 10 µM

## Input Now consider `O=C1CN=C(c2ccccn2)c2cc(Br)ccc2N1` and answer again.
## Output > 10 µM

## Input Now consider CC(S)C(=O)NCC(=O)O (stereo not drawn) and answer again.
## Output > 30 µM

## Input Now consider `C[N@+]1(CCF)[C@@H]2CC[C@H]1C[C@@H](OC(=O)C(O)(c1ccccc1)c1ccccc1)C2` and answer again.
## Output > 30 µM

## Input Now consider `CN(C)CC[C@@H](c1ccc(Cl)cc1)c1ccccn1` and answer again.
## Output > 30 µM

## Input Now consider CCC(C)C1(CC)C(=O)NC(=O)NC1=O (stereo not drawn) and answer again.
## Output > 30 µM

## Input Now consider `CC(=O)[C@@]1(O)CC[C@H]2[C@@H]3C=C(Cl)C4=CC(=O)[C@@H]5C[C@@H]5[C@]4(C)[C@H]3CC[C@@]21C` and answer again.
## Output > 10 µM

## Input Now consider `C=C1/C(=C\C=C2/CCC[C@]3(C)[C@@H]([C@H](C)/C=C/[C@@H](O)C4CC4)CC[C@@H]23)C[C@@H](O)C[C@@H]1O` and answer again.
## Output > 30 µM

## Input Now consider `CO[C@H]1/C=C/O[C@@]2(C)Oc3c(C)c(O)c4c(O)c(c(/C=N/N5CCN(C)CC5)c(O)c4c3C2=O)NC(=O)/C(C)=C\C=C\[C@H](C)[C@H](O)[C@@H](C)[C@@H](O)[C@@H](C)[C@H](OC(C)=O)[C@@H]1C` and answer again.
## Output > 30 µM

## Input Now consider CNC1=Nc2ccc(Cl)cc2C(c2ccccc2)=[N+]([O-])C1 [CHLORDIAZEPOXIDE] and answer again.
## Output > 10 µM

## Input Now consider OCc1cc(C(O)CNCCCCCCOCCCCc2ccccc2)ccc1O (stereo not drawn) and answer again.
## Output 12 µM

## Input Now consider `O=C(O)c1ccccc1Nc1cc(Cl)ccc1C(=O)O` and answer again.
## Output > 30 µM

## Input Now consider `COCC1=C(C(=O)O)N2C(=O)[C@@H](NC(=O)/C(=N\OC)c3csc(N)n3)[C@H]2SC1` and answer again.
## Output > 30 µM

## Input Now consider COc1cc2nc(N3CCN(C(=O)C4CCCO4)CC3)nc(N)c2cc1OC (stereo not drawn) and answer again.
## Output > 10 µM

## Input Now consider CC1OC2(CS1)CN1CCC2CC1 (stereo not drawn) and answer again.
## Output > 10 µM

## Input Now consider CC(C(=O)O)c1ccc2c(c1)[nH]c1ccc(Cl)cc12 (stereo not drawn) and answer again.
## Output > 10 µM

## Input Now consider `CCCCCCCCCCCCCCCCCCCCCC(=O)Nc1ccn([C@@H]2O[C@H](CO)[C@@H](O)[C@@H]2O)c(=O)n1` and answer again.
## Output > 30 µM

## Input Now consider CC1=C(C)C(=O)C(C(CCCCCC(=O)O)c2ccccc2)=C(C)C1=O (stereo not drawn) and answer again.
## Output > 30 µM

## Input Now consider C#C[C@]1(OC(C)=O)CC[C@H]2[C@@H]3CCC4=C/C(=N/O)CC[C@@H]4[C@H]3CC[C@@]21CC [NORGESTIMATE] and answer again.
## Output > 30 µM

## Input Now consider CC(CCc1ccc(O)cc1)NCCc1ccc(O)c(O)c1 (stereo not drawn) and answer again.
## Output > 30 µM

## Input Now consider O=C1C(CC[S+]([O-])c2ccccc2)C(=O)N(c2ccccc2)N1c1ccccc1 (stereo not drawn) and answer again.
## Output > 30 µM

## Input Now consider `O=C1CCc2cc(OCCCCc3nnnn3C3CCCCC3)ccc2N1` and answer again.
## Output > 30 µM

###

Recorded below: AC50, system Cholecystokinin receptor type A (Homo sapiens, UniProt P32238). Also: assay procedure not described here.

## Input State the recorded AC50 for this entry: CCOC(=O)c1cncn1[C@H](C)c1ccccc1 [ETOMIDATE]
## Output > 10 µM

## Input Now consider `CCN(CC)CCNC(=O)c1c(C)[nH]c(/C=C2\C(=O)Nc3ccc(F)cc32)c1C` and answer again.
## Output 6.7 µM

## Input Now consider CCCN[C@H]1CCc2nc(N)sc2C1 [PRAMIPEXOLE] and answer again.
## Output > 30 µM

## Input Now consider C=CC[C@@H]1/C=C(\C)C[C@H](C)C[C@H](OC)[C@H]2O[C@@](O)(C(=O)C(=O)N3CCCC[C@H]3C(=O)O[C@H](/C(C)=C/[C@@H]3CC[C@@H](O)[C@H](OC)C3)[C@H](C)[C@@H](O)CC1=O)[C@H](C)C[C@@H]2OC [TACROLIMUS ANHYDROUS] and answer again.
## Output > 30 µM

## Input Now consider `Nc1ncn([C@H]2C[C@H](O)[C@@H](CO)O2)c(=O)n1` and answer again.
## Output > 30 µM

## Input Now consider O=C1C(CC[S+]([O-])c2ccccc2)C(=O)N(c2ccccc2)N1c1ccccc1 (configuration not stated) and answer again.
## Output > 10 µM

## Input Now consider `NC(=O)CN1CCCC1=O` and answer again.
## Output > 30 µM

## Input Now consider `CN(C)CCCNc1c2ccccc2nc2cccc([N+](=O)[O-])c12` and answer again.
## Output > 30 µM

## Input Now consider CCC(=O)O[C@]1(C(=O)SCF)[C@H](C)C[C@H]2[C@@H]3C[C@H](F)C4=CC(=O)C=C[C@]4(C)[C@@]3(F)[C@@H](O)C[C@@]21C [FLUTICASONE PROPIONATE] and answer again.
## Output > 30 µM

## Input Now consider CC1OC2(CS1)CN1CCC2CC1 (configuration not stated) and answer again.
## Output > 10 µM

## Input Now consider CC(C)[C@H](N)C(=O)OCC(CO)OCn1cnc2c(=O)nc(N)[nH]c21 (some centres not stated) and answer again.
## Output > 30 µM

## Input Now consider COc1cc(N)c(Cl)cc1C(=O)NC1CCN(Cc2ccccc2)CC1 [CLEBOPRIDE] and answer again.
## Output > 30 µM

## Input Now consider CCC(COC(=O)c1cc(OC)c(OC)c(OC)c1)(c1ccccc1)N(C)C (configuration not stated) and answer again.
## Output > 30 µM

## Input Now consider OC1(c2ccc(Cl)cc2)c2ccccc2C2=NCCN21 (configuration not stated) and answer again.
## Output > 30 µM

## Input Now consider CCN(CC)C(=O)Nc1ccc(OCC(O)CNC(C)(C)C)c(C(C)=O)c1 (configuration not stated) and answer again.
## Output > 30 µM

## Input Now consider `COc1ccc2nc3cc(Cl)ccc3c(Nc3cc(CN4CCCC4)c(O)c(CN4CCCC4)c3)c2n1` and answer again.
## Output > 30 µM

## Input Now consider CC(N)C(O)c1ccccc1 (configuration not stated) and answer again.
## Output > 30 µM
